Each recorded value in this set is attributed to PubChem BioAssay.

Target: Streptavidin (Streptomyces avidinii) (UniProt P22629)
Sequence (P22629 whole entry, looked up): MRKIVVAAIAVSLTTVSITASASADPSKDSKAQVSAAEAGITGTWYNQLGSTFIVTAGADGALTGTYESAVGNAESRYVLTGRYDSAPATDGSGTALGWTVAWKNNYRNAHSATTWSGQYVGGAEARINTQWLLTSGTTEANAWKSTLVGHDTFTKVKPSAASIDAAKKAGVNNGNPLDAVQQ
Assay: streptavidin binders on small-molecule microarray, primary screen, artefact control for SMM compound annotation, biophysical, 635/667 nm fluorescence (AID 1147);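 also: signal reflects streptavidin binding to arrayed compounds as a control protein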
Conditions: streptavidin binding, higher = more signal
Records here are stratified by composite z-score; strata: low band = under -0.3, middle band = from -0.3 up to 0.8, high band = 0.8 and over

| molecule | class-assignment |
| --- | --- |
| COc1ccc([Si](C)(C)[C@@H]2[C@@H](CC(=O)N3Cc4ccccc4C[C@H]3CO)O[C@]3(C(=O)N(Cc4cccc(N5C(=O)c6cccc7cccc5c67)c4)c4ccccc43)[C@H]2C)cc1 | middle band |
| COc1cc2c(cc1O)C(C)N(Cc1ccc([N+](=O)[O-])o1)CC2 (centres undefined) | high band |
| CC=CC(O)C1C=CC2C(=O)N(c3ccccc3)C(=O)C2N1Nc1ccccc1F (centres undefined) | middle band |
| O=C1C[C@@](C(=O)NCCN2CCOCC2)(c2ccc([N+](=O)[O-])cc2)[C@@H](c2ccc(CO)cc2I)N1C1CCCCC1 | middle band |
| COCCOC(=O)N1C(=O)[C@@]2(c3cc(C#Cc4ccc(OC)cc4)ccc31)[C@H](C(=O)Nc1nc3ccccc3s1)[C@H]1C(=O)O[C@H](c3ccccc3)[C@H](c3ccccc3)N1[C@@H]2c1ccc(O)cc1 | middle band |
| COC(=O)[C@@]1(Cc2ccc(F)cc2)[C@H]2c3cc(C(=O)N4CCCC4)n(CCc4ccc(O)c(O)c4)c3C[C@H]2CN1C(=O)c1ccccc1 | middle band |
| CC1CC/C=C\[C@H]2OC34C=CCN(C(C)C)C(=O)[C@H]3N(CCCCCCO)C(=O)[C@@H]4C2C(=O)O1 (some centres undefined) | low band |
| C=CCC(OC(C)=O)[C@@H]1[C@@H](N(Cc2cccc3ccccc23)C(=O)Cc2ccc(OC)cc2)c2cc(OCCCO)ccc2N1C(=O)c1ccc2ccccc2n1 (some centres undefined) | high band |
| C=C(/C(=C/C[C@H](OC(C)=O)c1ccccc1OCCO)c1cc(C(=O)OC)ccc1OC)C(C)C | low band |
| COc1ccc(CCN2C(=O)[C@@]3(Cc4ccccc42)c2ccccc2C(=O)N(Cc2ccccc2OC)[C@H]3c2ccc(CO)cc2)cc1 | low band |
| COc1cc2c(cc1OC)CN(C(=O)[C@@H]1[C@H]3C(=O)O[C@H](c4ccccc4)[C@H](c4ccccc4)N3[C@H](c3ccc(OCCO)cc3)[C@@]13C(=O)Nc1ccc(C#CC4(O)CCCCCC4)cc13)CC2 | high band |
| CN(C)CCCNC(=O)[C@@]1(C)c2ccccc2C(=O)N(Cc2ccccc2)[C@H]1c1ccc(CO)cc1 | low band |
| CC(C)C(=C=CC[C@H](O)c1ccc(OCCO)cc1)C[C@H](O)c1ccccn1 | low band |
| COC(=O)[C@@]1(Cc2ccc(OC)cc2)[C@H]2c3cc(C(=O)N4CCCC4)n(Cc4c(-c5ccccc5)noc4C)c3C[C@H]2CN1C(=O)c1ccccc1 | high band |

---

Target: Focal adhesion kinase 1 (Homo sapiens) (UniProt Q05397)
Sequence (Q05397 whole entry, looked up): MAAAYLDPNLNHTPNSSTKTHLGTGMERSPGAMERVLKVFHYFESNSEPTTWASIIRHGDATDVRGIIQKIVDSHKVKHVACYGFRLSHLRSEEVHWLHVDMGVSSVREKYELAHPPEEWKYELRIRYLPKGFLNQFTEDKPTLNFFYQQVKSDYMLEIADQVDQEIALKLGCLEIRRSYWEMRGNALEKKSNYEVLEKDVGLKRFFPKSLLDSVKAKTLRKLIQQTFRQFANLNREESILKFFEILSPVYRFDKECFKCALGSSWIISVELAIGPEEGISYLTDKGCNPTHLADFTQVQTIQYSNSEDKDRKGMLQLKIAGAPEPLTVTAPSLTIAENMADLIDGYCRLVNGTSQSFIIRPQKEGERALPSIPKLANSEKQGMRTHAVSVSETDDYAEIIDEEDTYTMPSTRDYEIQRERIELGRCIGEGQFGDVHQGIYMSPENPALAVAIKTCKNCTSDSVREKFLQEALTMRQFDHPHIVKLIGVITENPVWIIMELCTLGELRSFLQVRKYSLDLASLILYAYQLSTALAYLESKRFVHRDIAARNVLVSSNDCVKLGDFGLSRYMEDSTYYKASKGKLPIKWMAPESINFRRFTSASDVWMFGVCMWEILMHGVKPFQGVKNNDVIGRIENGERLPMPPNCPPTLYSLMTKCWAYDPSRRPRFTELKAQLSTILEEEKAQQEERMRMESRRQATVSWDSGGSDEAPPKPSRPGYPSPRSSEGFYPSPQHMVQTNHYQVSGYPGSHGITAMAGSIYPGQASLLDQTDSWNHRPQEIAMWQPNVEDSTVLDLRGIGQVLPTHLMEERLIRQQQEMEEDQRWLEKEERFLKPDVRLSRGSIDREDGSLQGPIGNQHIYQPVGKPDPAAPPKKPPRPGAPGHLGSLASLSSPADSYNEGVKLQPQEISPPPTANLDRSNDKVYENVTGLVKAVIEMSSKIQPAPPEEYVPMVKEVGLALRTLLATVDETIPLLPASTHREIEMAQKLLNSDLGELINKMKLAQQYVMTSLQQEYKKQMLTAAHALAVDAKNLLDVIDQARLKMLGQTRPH
Assay: small-molecule microarray binders of FAK, primary screen, biochemical, 635/667 nm fluorescence, BSA, DTT (AID 1130);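 also: composite of spot emission at 667 nm and signal to noise over triplicate slides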
Details: PTK2 binding, 635 nm fluorescence, higher = more signal
measured-metric: composite z-score

| molecule | measured-metric | numeric-readout |
| --- | --- | --- |
| COc1ccc(NC(=O)O[C@H]2[C@H](OC(=O)Nc3ccccc3)[C@H](OC(=O)Nc3ccccc3)[C@@H](OC)O[C@@H]2CO)cc1 | composite z-score | 0.709 |
| C=CCOC(=O)[C@H]1[C@@H]2C(=O)O[C@@H](c3ccccc3)[C@@H](c3ccccc3)N2[C@@H](c2ccc(OCCOC(=O)[C@@H]3C[C@@H]4C(=O)N5CCC[C@H]5C(=O)N4[C@@H]3c3ccc(O)cc3)cc2)[C@]12C(=O)Nc1ccc(I)cc12 | composite z-score | 0.0398 |
| CC(CO)N1C(=O)[C@@H]2[C@H]3C(=O)OCC=C[C@H]3OC23C=CCN(CCN2CCOCC2)C(=O)[C@@H]13 (some centres not stated) | composite z-score | -0.568 |
| CN1C(=O)C2C=CC(C(O)c3cccc4ccccc34)N(N3CCCCC3)C2C1=O (configuration not stated) | composite z-score | 0.127 |
| COC(=O)c1c2oc(c1C(=O)OC)C(=O)N(C)Cc1cn(nn1)C[C@H](Cc1ccccc1)NC(=O)N[C@H](CO)CC2 | composite z-score | -0.27 |
| CCOC(=O)C1CCCCN1 (configuration not stated) | composite z-score | -0.0288 |
| COc1ccc([Si](C)(C)[C@@H]2[C@@H](CCn3cc([C@H](O)c4ccccc4)nn3)O[C@]3(C(=O)N(Cc4ccc(N5CCC5=O)cc4)c4ccccc43)[C@H]2C)cc1 | composite z-score | -0.0467 |
